Kindly supply the reported kon values for the records listed here.
molecular target: T1, human vascular endothelial growth factor receptor-2 Fc chimera (KDR-Fc) (human, UniProt P35968 20-764); assay: BIAcore, KDR-Fc immobilised on CM5 chip
T1 construct: range 1-764; also called human VEGF-R2-Fc; not shown: human IgG1 Fc
T1 sequence (P35968 20-764 limits assumed, change not shown, form in doubt): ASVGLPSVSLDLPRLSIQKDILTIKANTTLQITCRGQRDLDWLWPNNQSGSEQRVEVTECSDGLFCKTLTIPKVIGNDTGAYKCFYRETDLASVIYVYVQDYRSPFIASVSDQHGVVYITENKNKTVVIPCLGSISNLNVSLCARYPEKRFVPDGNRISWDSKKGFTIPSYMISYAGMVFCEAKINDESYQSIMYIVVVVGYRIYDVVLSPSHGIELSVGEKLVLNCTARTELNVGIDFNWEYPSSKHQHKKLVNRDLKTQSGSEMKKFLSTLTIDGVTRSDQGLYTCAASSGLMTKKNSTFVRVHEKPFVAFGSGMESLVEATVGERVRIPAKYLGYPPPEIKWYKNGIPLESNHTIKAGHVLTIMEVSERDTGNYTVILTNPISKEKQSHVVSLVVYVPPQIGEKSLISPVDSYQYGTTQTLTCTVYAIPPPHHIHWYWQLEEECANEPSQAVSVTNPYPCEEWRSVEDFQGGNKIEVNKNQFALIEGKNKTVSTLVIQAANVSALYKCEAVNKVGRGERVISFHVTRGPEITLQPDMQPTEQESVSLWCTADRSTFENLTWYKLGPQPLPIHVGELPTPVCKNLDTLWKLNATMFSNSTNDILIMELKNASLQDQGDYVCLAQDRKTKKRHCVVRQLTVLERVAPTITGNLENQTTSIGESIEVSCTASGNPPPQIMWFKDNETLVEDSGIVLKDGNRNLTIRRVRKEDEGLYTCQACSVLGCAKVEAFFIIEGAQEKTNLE
Unit M⁻¹ s⁻¹ implied. Number only.

Entry E18, E. coli-expressed, His6 (designed binder, soluble E. coli form; N-terminal residues added for expression not described) EVVAATPTSLLISWRHPHFPTRYYRITYGETGGNSPVQEFTVPLQPPTATISGLKPGVDYTITGYAVTVERNGRELNTPISINYRTEIDKPSQHHHHHH ; kon = 260000

Entry M5FL, E. coli-expressed, His6 (designed binder, soluble E. coli form with Ser100) VSDVPRDLEVVAATPTSLLISWRHPHFPTRYYRITYGETGGNSPVQEFTVPLQPPLATISGLKPGVDYTITVYAVTKERNGRELFTPISINYRTEIDKPSQHHHHHH ; kon = 100000

Entry E6, E. coli-expressed, His6 (designed binder, soluble E. coli form; N-terminal residues added for expression not described) EVVAATPTSLLISWRHPHFPTRYYRITYGETGGNSPVQEFTVPLQPPTATISGLKPGVDYTITGYAVTDGWNGRLLSIPISINYRTEIDKPSQHHHHHH ; kon = 890000

Entry VR28, E. coli-expressed, His6 (designed binder, soluble E. coli form; N-terminal Met not described) VSDVPRDLEVVAATPTSLLISWRHPHFPTRYYRITYGETGGNSPVQEFTVPLQPPTATISGLKPGVDYTITGYAVTVAQNDHELITPISINYRTEIDKPSQHHHHHH ; kon = 30000

Entry E29, E. coli-expressed, His6 (designed binder, soluble E. coli form; N-terminal residues added for expression not described) EVVAATPTSLLISWRHPHFPTRYYRITYGETGGNSPVQEFTVPLQPPTATISGLKPGVDYTITGYAVTVERNGRVLMTPISINYRTEIDKPSQHHHHHH ; kon = 360000

Entry E19, E. coli-expressed, His6 (designed binder, soluble E. coli form; N-terminal residues added for expression not described) EVVAATPTSLLISWRHPHFPTRYYRITYGETGGNSPVQEFTVPLQPPTATISGLKPGVDYTITGYAVTVERNGRHLMTPISINYRTEIDKPSQHHHHHH ; kon = 300000
